Test system: hedgehog signaling pathway
Experiment: Gli-Luc Reporter Assay for Hh Pathway Inhibition (TMHh-12 cells, pTA-8×Gli-Luc reporter)
Format: cell-based, Mouse
Conditions: Mus musculus, TMHh12, enzymatic and cellular assays for the inhibition of hedgehog signaling pathways; read-out: IC50 Ranges
Procedure: Compounds of the present invention are assayed to evaluate their capacity to inhibit the hedgehog signaling pathway. Gli-Luc Reporter Assay for Hh Pathway Inhibition […]
pIC50: −log10 of the molar value.
For each of the molecules below, state its pIC50.

// recorded pIC50 for CN1CCC(N2CCc3c(cccc3Nc3ccc(Cl)c(-c4ncc(-c5ccccc5)[nH]4)c3)C2)CC1 [Compound 41] : 8.00 to 9.00

// recorded pIC50 for COc1ccc(Nc2cccc3c2CCN(S(C)(=O)=O)C3)cc1-c1ccc(C#N)cc1 [Compound 149] : 6.00 to 7.00

pIC50 measured on CS(=O)(=O)N1CCc2c(cccc2Nc2ccc(OC(F)(F)F)c(-c3ccc(C#N)cc3)c2)C1 [Compound 150] = 5.00 to 6.00

// field: pIC50; key: Cc1ccc(-c2cc(Nc3cccc4c3CCN([C@@H]3CCS(=O)(=O)C3)C4)ccc2C)nc1 [Compound 279] ; value = 9.00 to 12.00

For reference, reported pIC50 for Cc1ccc(Nc2cccc3c2CCN(S(C)(=O)=O)C3)cc1-c1ncc(-c2ccc(CN(C)C)cc2)[nH]1 [Compound 106] stands at 8.00 to 9.00

pIC50 measured on Cc1ccc(Nc2cccc3c2CCN(CCS(C)(=O)=O)C3)cc1C(=O)Nc1ccccc1 [Compound 246] = 7.00 to 8.00

Lab note: CCOc1cnc(-c2cc(Nc3cccc4c3CCN(S(C)(=O)=O)C4)ccc2C)cn1 [Compound 314] gave pIC50 of 9.00 to 12.00

Record C[C@H](C(=O)O)N1CCc2c(cccc2Nc2ccc(Cl)c(-c3nc(-c4ccccc4)c[nH]3)c2)C1 [Compound 78] . Reported pIC50: 8.00 to 9.00

Record NC(=O)N1CCc2c(cccc2Nc2ccc(Cl)c(-c3ncc(-c4ccccc4)[nH]3)c2)C1 [Compound 43] . Reported pIC50: 8.00 to 9.00

# molecule O=S(=O)(NCCO)N1CCc2c(cccc2Nc2ccc(Cl)c(-c3ncc(-c4ccccc4)[nH]3)c2)C1 [Compound 17] ; its pIC50 = 9.00 to 12.00

pIC50 recorded for this molecule, CC(C)N1CCC(N2CCc3c(cccc3Nc3ccc(Cl)c(-c4ncc(-c5ccccc5)[nH]4)c3)C2)CC1 [Compound 36] , is 9.00 to 12.00

Recorded result, Cc1ccc(Nc2cccc3c2CCN(S(C)(=O)=O)C3)cc1-c1nc2ccccc2[nH]1 [Compound 5] , pIC50: 9.00 to 12.00

Measured pIC50 of Cc1ccc(-c2cc(Nc3cccc4c3CCN(C[C@H](O)CO)C4)ccc2C)nc1 [Compound 210] : 8.00 to 9.00

pIC50 for CC(O)C(=O)N1CCc2c(cccc2Nc2ccc(Cl)c(-c3ncc(-c4ccccc4)[nH]3)c2)C1 (stereo not shown) [Compound 10] is 9.00 to 12.00

GET /value?item= CCOc1ccc(-c2nc(Nc3cccc4c3CCN(S(=O)(=O)C(C)C)C4)ccc2C)nn1 [Compound 328] &field=pIC50 returns 8.00 to 9.00

For CC(C)(C(=O)O)C(=O)N1CCc2c(cccc2Nc2ccc(Cl)c(-c3ncc(-c4ccccc4)[nH]3)c2)C1 [Compound 67] the molecule record lists pIC50 as 8.00 to 9.00
